- Measured on: CFTR (Homo sapiens, UniProt P13569)
- Sequence (P13569 with tags, fused parts or gaps DEL508-508): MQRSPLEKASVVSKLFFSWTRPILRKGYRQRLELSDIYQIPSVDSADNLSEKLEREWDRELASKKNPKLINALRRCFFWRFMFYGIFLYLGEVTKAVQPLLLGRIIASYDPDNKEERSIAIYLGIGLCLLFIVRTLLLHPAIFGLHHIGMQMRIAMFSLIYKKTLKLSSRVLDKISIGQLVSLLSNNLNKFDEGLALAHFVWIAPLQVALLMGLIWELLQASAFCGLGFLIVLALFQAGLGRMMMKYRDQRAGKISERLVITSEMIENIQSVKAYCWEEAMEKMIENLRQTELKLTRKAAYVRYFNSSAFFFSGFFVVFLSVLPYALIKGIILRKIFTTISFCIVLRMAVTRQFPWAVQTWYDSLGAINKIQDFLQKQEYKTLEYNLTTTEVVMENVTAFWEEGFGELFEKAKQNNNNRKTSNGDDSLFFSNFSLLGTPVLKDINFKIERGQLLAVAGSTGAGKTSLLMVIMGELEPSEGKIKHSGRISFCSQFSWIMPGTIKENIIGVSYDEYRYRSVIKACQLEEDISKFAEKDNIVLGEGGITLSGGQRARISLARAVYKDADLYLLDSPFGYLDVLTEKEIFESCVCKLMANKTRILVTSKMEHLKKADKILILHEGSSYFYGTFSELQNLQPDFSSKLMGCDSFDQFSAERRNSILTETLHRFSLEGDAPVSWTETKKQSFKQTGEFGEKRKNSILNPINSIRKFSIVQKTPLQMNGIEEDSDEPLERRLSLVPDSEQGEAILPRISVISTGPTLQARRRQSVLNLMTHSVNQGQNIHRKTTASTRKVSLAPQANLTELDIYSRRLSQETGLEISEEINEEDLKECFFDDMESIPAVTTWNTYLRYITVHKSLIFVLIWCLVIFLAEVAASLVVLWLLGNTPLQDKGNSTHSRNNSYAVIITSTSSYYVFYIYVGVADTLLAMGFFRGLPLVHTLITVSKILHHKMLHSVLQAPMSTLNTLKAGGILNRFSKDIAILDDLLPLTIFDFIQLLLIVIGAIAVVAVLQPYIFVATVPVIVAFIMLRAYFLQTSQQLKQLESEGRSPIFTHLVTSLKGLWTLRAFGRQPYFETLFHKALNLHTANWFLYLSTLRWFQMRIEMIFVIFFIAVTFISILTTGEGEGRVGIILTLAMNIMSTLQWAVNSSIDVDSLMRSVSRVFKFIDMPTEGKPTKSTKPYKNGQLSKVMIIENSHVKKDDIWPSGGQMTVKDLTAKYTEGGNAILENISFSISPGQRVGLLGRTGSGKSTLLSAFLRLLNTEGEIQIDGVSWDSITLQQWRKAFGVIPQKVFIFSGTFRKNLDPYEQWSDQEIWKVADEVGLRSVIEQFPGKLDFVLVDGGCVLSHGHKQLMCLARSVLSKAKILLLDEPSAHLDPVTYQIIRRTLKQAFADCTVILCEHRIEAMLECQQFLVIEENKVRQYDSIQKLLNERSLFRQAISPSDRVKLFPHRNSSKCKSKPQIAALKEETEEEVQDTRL
- Procedure summary: Membrane potential dye, Enteroid Assay A
- Type: cell-based
- Test context: Table 6; human enteroid cells, 18-24 hours; acute 10 μM forskolin and 300 nM ivacaftor; read-out: Ent. A EC50
pEC50: −log10 of the molar value.
Consider the following compounds; for each one, report its pEC50.

Fill in pEC50 for record Cc1cccc(C)c1-c1cc2nc(n1)NS(=O)(=O)c1cccc(c1)C(=O)N(CCC1CCCCC1)[C@H](CC(C)C)CO2
> 6.00

Fill in pEC50 for record Cc1cccc(C)c1-c1cc2nc(n1)NS(=O)(=O)c1cccc(c1)C(=O)N(Cc1ccccc1)C(C(=O)NC1CCCCC1)CO2 (stereo not drawn)
5.52 to 6.00

Fill in pEC50 for record C=CC1CN(CCC(C)C)C(=O)c2cccc(c2)S(=O)(=O)Nc2nc(cc(-c3c(C)cccc3C)n2)O1 (stereo not drawn)
> 6.00

Fill in pEC50 for record Cc1cccc(C)c1-c1cc2nc(n1)NS(=O)(=O)c1cccc(c1)C(=O)N(CC1CC1)[C@H](CC(C)C)CO2
> 6.00

Fill in pEC50 for record Cc1cccc(C)c1-c1cc2nc(n1)NS(=O)(=O)c1cccc(c1)C(=O)N(Cc1cncn1C)[C@H](CC(C)C)CO2
5.52 to 6.00

Fill in pEC50 for record Cc1cccc(C)c1-c1cc2nc(n1)NS(=O)(=O)c1cccc(c1)C(=O)N(Cc1ccccc1)C(C(=O)NCc1ccccc1)CO2 (stereo not drawn)
4.52 to 5.52
